Documented CC50 across a set of compounds
System: SK-OV-3 cells
Assay: Growth inhibition of ovarian cancer cell line SK-OV-3 (MTT assay, cell survival)
Format: cell-based
Conditions: Homo sapiens, drug concentration that results in 50% cell survival, 72 hrs incubation, reported as ranges

CN[C@@H](C)C(=O)N[C@H](C(=O)N1CC[C@@H]2[C@H]1[C@@H](c1c[nH]c3cc(F)ccc13)CN2Cc1ccccc1)C1CCCCC1 = 100 to 1000 nM
CN[C@@H](C)C(=O)N[C@H](C(=O)N1CC[C@H]2NC[C@H](c3c[nH]c4cc(F)ccc34)[C@H]21)C(C)(C)C = < 100 nM
CN[C@@H](C)C(=O)N[C@H](C(=O)N1CC[C@@H]2[C@H]1[C@@H](c1c[nH]c3cc(F)ccc13)CN2C(=O)C(F)(F)F)C1CCCCC1 = < 100 nM
CN[C@@H](C)C(=O)N[C@H](C(=O)N1CC[C@@H]2[C@H]1[C@H](c1c[nH]c3cc(F)ccc13)CN2S(C)(=O)=O)C(C)C = > 10000 nM
CN[C@@H](C)C(=O)N[C@H](C(=O)N1CC[C@@H]2[C@H]1[C@@H](c1c[nH]c3cc(F)ccc13)CN2c1ncccn1)[C@@H](C)OC = < 100 nM

Then this compound:
Task: Item: CN[C@@H](C)C(=O)N[C@H](C(=O)N1CC[C@@H]2[C@H]1[C@@H](c1c[nH]c3cc(F)ccc13)CN2C(=O)OC)C1CCCCC1 Test system: SK-OV-3 cells Read-out: CC50 Value: ?
Output: < 100 nM

* * *

# maps each entry to its CC50
Tested on: SK-OV-3 cells
Assay: Growth inhibition of ovarian cancer cell line SK-OV-3 (MTT assay, cell survival)
Type: cell-based
Settings: Homo sapiens, drug concentration that results in 50% cell survival, 72 hrs incubation, reported as ranges

Consider the following illustrative entries.
CN[C@@H](C)C(=O)N[C@@H](CO)C(=O)N1CC[C@@H]2[C@H]1[C@@H](c1c[nH]c3cc(F)ccc13)CN2C1CCCC1 [Example 11] = > 10 µM
CN[C@@H](C)C(=O)N[C@H](C(=O)N1CC[C@@H]2[C@H]1[C@@H](c1c[nH]c3cc(F)ccc13)CN2C(=O)OCc1ccccc1)C1CCCCC1 [Example 99] = < 0.1 µM
CN[C@@H](C)C(=O)N[C@H](C(=O)N1CC[C@H]2NC[C@@H](c3c[nH]c4ccccc34)[C@H]21)[C@@H](C)OC [Example 89] = > 10 µM
CN[C@@H](C)C(=O)N[C@@H](CO)C(=O)N1CC[C@@H]2[C@H]1[C@H](c1c[nH]c3cc(F)ccc13)CN2C1CCCC1 [Example 10] = 1 to 10 µM
CN[C@@H](C)C(=O)N[C@H](C(=O)N1C[C@@H](O)[C@H]2NC[C@@H](c3c[nH]c4cc(F)ccc34)[C@H]21)C1CCCCC1 [Example 86] = > 10 µM

Task: Need CC50 of CN[C@@H](C)C(=O)N[C@@H](CO)C(=O)N1CC[C@H]2NC[C@H](c3c[nH]c4cc(F)ccc34)[C@H]21 [Example 33] , thanks.
Output: 1 to 10 µM

* * *

Target: cIAP-1 BIR-3 (Homo sapiens, UniProt Q13490)
Sequence (Q13490 266-352 limits assumed): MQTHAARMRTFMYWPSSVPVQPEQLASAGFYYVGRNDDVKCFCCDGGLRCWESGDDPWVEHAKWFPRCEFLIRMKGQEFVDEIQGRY
Experiment: Fluorescence polarization binding affinity to cIAP-1 BIR-3 (competition with AbuRPF-K(5-Fam)-NH2)
Settings: 5 nM labeled peptide, 40 nM BIR3, 15 min at RT, pH 7.5; reported as ranges; read-out: KD (c-IAP-1 BIR3)
REPORTED_ENDPOINT: Kd

Task: Return Kd measured with cIAP-1 BIR-3 (Homo sapiens, UniProt Q13490) given this molecule: CN[C@@H](C)C(=O)N[C@@H](CO)C(=O)N1CC[C@@H]2[C@H]1[C@@H](c1c[nH]c3cc(F)ccc13)CN2S(C)(=O)=O
Output: < 100 nM

Task: Also, CN[C@@H](C)C(=O)N[C@H](C(=O)N1CC[C@@H]2[C@H]1[C@@H](c1c[nH]c3cc(F)ccc13)CN2Cc1ccccn1)C1CCCCC1 please.
Output: < 100 nM

Task: And what about the molecule CN[C@@H](C)C(=O)N[C@H](C(=O)N1CC[C@@H]2[C@H]1[C@@H](c1c[nH]c3cc(F)ccc13)CN2S(C)(=O)=O)[C@@H](C)OC ?
Output: < 100 nM

Task: Further, for CN[C@@H](C)C(=O)N[C@H](C(=O)N1CC[C@@H]2[C@H]1[C@@H](c1c[nH]c3cc(F)ccc13)CN2C1CCCC1)C(C)C ?
Output: < 100 nM

Task: Moving on to CN[C@@H](C)C(=O)N[C@H](C(=O)N1CC[C@@H]2[C@H]1[C@@H](c1c[nH]c3cc(F)ccc13)CN2C(C)=O)C(C)(C)C
Output: < 100 nM

Task: Moving on to the next molecule: CC[C@H](NC(=O)[C@H](C)NC)C(=O)N1CC[C@@H]2[C@H]1[C@@H](c1c[nH]c3cc(F)ccc13)CN2C(C)=O
Output: < 100 nM

* * *

Target: XIAP BIR-3 (Homo sapiens, UniProt P98170)
Construct: 40 nM of the respective IAP BIR3
Sequence (P98170 241-356 limits assumed): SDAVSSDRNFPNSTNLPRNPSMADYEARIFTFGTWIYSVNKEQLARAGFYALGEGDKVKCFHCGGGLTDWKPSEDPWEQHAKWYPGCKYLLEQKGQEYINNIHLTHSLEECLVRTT
Assay: Fluorescence polarization binding affinity to XIAP BIR-3 (competition with AbuRPF-K(5-Fam)-NH2)
Details: 5 nM labeled peptide, 40 nM BIR3, 15 min at RT, pH 7.5; reported as ranges
Method: The binding affinities of the compounds are reported as a KD value (μM). […] Following incubation, the polarization values (mP) were measured on a Victor2V (available from PerkinElmer Life Sciences) using a 485 nm excitation filter and a 520 nm emission filter. […]
REPORTED_ENDPOINT: Kd

# count of solved cases: 2
CN[C@@H](C)C(=O)N[C@H](C(=O)N1CC[C@@H]2[C@H]1[C@@H](c1c[nH]c3ccccc13)CN2C(C)C)C1CCCCC1 [Example 98] = 1 to 10 µM
CN[C@@H](C)C(=O)N[C@@H](COC)C(=O)N1CC[C@@H]2[C@H]1[C@H](c1c[nH]c3cc(F)ccc13)CN2S(C)(=O)=O [Example 53] = > 10 µM

Task: Returns the measured Kd for the input compound. Input: CC[C@H](NC(=O)[C@H](C)NC)C(=O)N1CC[C@@H]2[C@H]1[C@@H](c1c[nH]c3ccc(F)cc13)CN2C(C)=O [Example 67]
Output: < 0.1 µM

Task: Entry to check: CN[C@@H](C)C(=O)N[C@@H](CO)C(=O)N1CC[C@@H]2[C@H]1[C@H](c1c[nH]c3cc(F)ccc13)CN2C1CCCC1 [Example 10]
Output: > 10 µM

Task: Follow-up item: CN[C@@H](C)C(=O)N[C@H](C(=O)N1CC[C@@H]2[C@H]1[C@@H](c1c[nH]c3cc(F)ccc13)CN2C(=O)c1ccccc1)C1CCCCC1 [Example 38]
Output: < 0.1 µM

Task: Repeat for the following compound: CC[C@H](NC(=O)[C@H](C)NC)C(=O)N1CC[C@@H]2[C@H]1[C@H](c1c[nH]c3cc(F)ccc13)CN2Cc1ccccc1 [Example 106]
Output: > 10 µM

Task: Same thing, different compound: CN[C@@H](C)C(=O)N[C@@H](CO)C(=O)N1CC[C@@H]2[C@H]1[C@@H](c1c[nH]c3cc(F)ccc13)CN2c1ncccn1 [Example 80]
Output: < 0.1 µM

* * *

Test system: SK-OV-3 cells
Experiment: Growth inhibition of ovarian cancer cell line SK-OV-3 (MTT assay, cell survival)
Format: cell-based
Conditions: Homo sapiens, drug concentration that results in 50% cell survival, 72 hrs incubation, reported as ranges
Listed next: entries and their corresponding CC50.

CN[C@@H](C)C(=O)N[C@@H](COC)C(=O)N1CC[C@H]2NC[C@H](c3c[nH]c4cc(F)ccc34)[C@H]21 [Example 34] = 1000 to 10000 nM
CC[C@H](NC(=O)[C@H](C)NC)C(=O)N1CC[C@H]2NC[C@H](c3c[nH]c4cc(F)ccc34)[C@H]21 [Example 29] = 100 to 1000 nM

Task: What measured CC50 is associated with CN[C@@H](C)C(=O)N[C@@H](CO)C(=O)N1CC[C@@H]2[C@H]1[C@@H](c1c[nH]c3ccc(F)cc13)CN2C(C)=O [Example 73] on SK-OV-3 cells?
Output: 1000 to 10000 nM

Task: Another: CN[C@@H](C)C(=O)N[C@H](C(=O)N1CC[C@@H]2[C@H]1[C@@H](c1c[nH]c3cc(F)ccc13)CN2C(C)=O)C(C)(C)C [Example 62]
Output: < 100 nM

Task: Record: C[C@H](N)C(=O)N[C@H](C(=O)N1CC[C@H]2NC[C@H](c3cn(Cc4ccccc4)c4cc(F)ccc34)[C@H]21)C1CCCCC1 [Example 92]
Output: 1000 to 10000 nM

Task: Likewise for CN[C@@H](C)C(=O)N[C@@H](COC)C(=O)N1CC[C@@H]2[C@H]1[C@@H](c1c[nH]c3cc(F)ccc13)CN2C(C)=O [Example 64] ?
Output: 100 to 1000 nM
